target: T1, human IgG; assay: ELISA, human IgG coated 1 ug/mL
T1 construct: ELISA coating control
Experimental readout: OD450 (OD450)
Give bare numbers, in OD450.

{"columns": ["Binder", "Unit abbrev", "OD450"],
 "data": [
  ["NBL507-A1L1-P1R2-1A1-(1)-PME207-SEQF_A01 (VHH, purified VHH; also called lAl) VHH: EVQLVESGGGLVQPGGSLRLSCAASGFTFRSSAMSWARQAPGKGLEWVSDIYPDGRTDYADSIKGRFTMSRDNAKNTVYLLMDSLKPEDTAVYHCQVGRYVSGVYYQPRGQGTQVTVSS", "OD450", 0.03],
  ["NBL507-A1L1-P1R2-1E2-(10)-PME207-SEQF_B02 (VHH, purified VHH) VHH: EVQLVESGGGLVQPGGSLRLSCAASGSISSIYAMGWYRQAPGKLRELVAAITTGGSTFYRDSVKGRFTISRDNVANTVYLQMNSLKPEDTAVYHCNGAPWGDIAPVAVSWGQGTQVTVSS", "OD450", 0.03]
]}

# context switch: different binder, same OD450
[Q] Which OD450 value belongs to NBL507-A1L1-P1R2-1D2-(9)-PME207-SEQF_A02 (VHH, purified VHH) VHH: QVQLVESGGGLVQPGGSLRLSCAASGFTFSSSAMSWARQAPGKGLECVSDIYPDGTSSYADSMKGRFTISRDNTRNTMYLQMNVLKPEDTATYYCVIGRGGYAMGDRRLRGQGTQVTVSS ?
[A] 0.02
